Source of measurements: patent US9994566B2

Biological target: HIF Prolyl hydroxylases 2 (PHD2) (Homo sapiens)
Sequence (Q9GZT9 whole entry, species assumed): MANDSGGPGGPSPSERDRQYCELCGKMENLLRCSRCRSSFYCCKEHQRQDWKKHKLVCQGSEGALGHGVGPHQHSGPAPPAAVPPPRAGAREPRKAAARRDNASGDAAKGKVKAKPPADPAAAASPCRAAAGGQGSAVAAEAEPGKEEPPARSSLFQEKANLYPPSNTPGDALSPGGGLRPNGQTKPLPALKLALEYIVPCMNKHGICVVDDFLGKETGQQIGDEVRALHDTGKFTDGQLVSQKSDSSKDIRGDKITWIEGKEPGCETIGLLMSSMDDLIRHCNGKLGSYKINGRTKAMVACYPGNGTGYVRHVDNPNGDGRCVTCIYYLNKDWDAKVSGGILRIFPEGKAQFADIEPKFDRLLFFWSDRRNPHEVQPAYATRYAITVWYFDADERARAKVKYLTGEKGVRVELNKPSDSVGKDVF
Assay: PHD2 inhibition, fluorescence polarization (FP) detection of HIF-1α / VBC complex interaction
Conditions: PHD2 0.5 μg/μl, FAM-HIF (556-575) 1 μM, 30 minutes room temperature
pIC50: −log10 of the molar value.
resultType: pIC50

> print(dat)
                                  structure  numericvalue
1  COc1cccc(-c2ccc3c(O)c(C(=O)NCC(=O)O)nc(C)c3n2)c1          5.16

A = COc1ccc(-c2ccc3c(O)c(C(=O)NCC(=O)O)ncc3n2)cc1
B = O=C(O)CNC(=O)c1ncc2nc(-c3cccs3)ccc2c1O
Endpoint returns the identifier whose pIC50 is numerically larger, either A or B . Reply briefly: the label of your chosen item.
B
